- assay text: Human HepG2 cell viability assay in 384 well format
- Format: toxicity, cell-based
- Parameters: dose 125 nL, time 70.5 hour; concentration not given beside the values
- measurement context: HepG2 cells, read-out: Inhibition
observation type: cytotoxicity at 70.5 h (%)
Value expressed in %; do not type the unit.

Here are 8 compounds together with their reported answers.
>>> measured_number("O=C(c1ccccc1)N1CCC[C@]2(C[C@@H](OCc3ccncc3)CO2)C1")
-4.9
>>> measured_number("Cc1ccccc1CN(CCN(C)C)Cc1ccc(O)c(C(=O)O)c1")
-8.19
>>> measured_number("CN1CCN(S(=O)(=O)c2ncn(C)c2Cl)CC1")
-5.44
>>> measured_number("Cc1cc(F)cc(NC(=O)N(C)CC(C)(CO)CO)c1")
-1.87
>>> measured_number("CC(C)NC(=O)c1ccc2nnc(C3CN(C)CCN3C)n2c1 (stereo not drawn)")
-8.09
>>> measured_number("CN(C)Cc1ccc(C2CCCCN2C(=O)c2ncccc2O)cc1 (stereo not drawn)")
-3.45
>>> measured_number("COCCN1CCN(Cc2nccs2)[C@H]2CS(=O)(=O)C[C@H]21")
-2.69
>>> measured_number("CC(=O)NCCCOc1c(C)cccc1Cl")
-2.28

Attention now shifts to the item below.
In: What cytotoxicity at 70.5 h value was documented for this compound, `CS(=O)(=O)N[C@@H]1COC[C@@H]2CN(Cc3ccoc3)C[C@@H]21` ?
Out: -11.6

Source of measurements: ChEMBL document CHEMBL3507680
